Items are presented alongside their recorded z-scoreMRSA+ rep 1.
# Tested on: intracellular MRSA
# Format: cell-based, Staphylococcus aureus
# TEST_CONDITIONS: PKIS compound screen, MRSA-infected HeLa cells, replicate 1
# Protocol: The cells were resuspended in cell culture medium without antibiotics, seeded with 10,000 cells/well into Costar flat-bottom 96-well plates (Corning, Amsterdam, the Netherlands), and were incubated overnight at 37°C/5% CO2. […] The calculated mean MOI throughout all experiments was 6.8 ± 4.6 (mean ± SD). […] HeLa cells were harvested by trypsinization and fixed with 1% paraformaldehyde. Samples were measured on a FACSLyric with HTS extension (BD Biosciences). […]

| COMPOUND | z-scoreMRSA+ rep 1 |
| --- | --- |
| Cc1cn2c(=O)cc(N3CCOCC3)nc2n1Cc1cccc(Cl)c1Cl [GSK2334006A] | -2.11 |
| COc1ccc(S(=O)(=O)NC2CCN(c3cc(C)nc(Nc4cccc(C#N)c4)n3)CC2)cc1 [GSK1653539A] | -0.26 |
| COC(=O)c1cccc(NC(=O)NC2CCN(c3ccnc(Nc4ccc(OC)cc4)n3)C2)c1 (centres unmarked) [GSK1379746A] | 0.06 |
| COc1ccc(Nc2nccc(N3CCC(NC(=O)Nc4cccc(C(C)=O)c4)C3)n2)cc1 (centres unmarked) [GSK1379731A] | 0.57 |
| Cn1cncc1-c1cc2c(Nc3ccc(OCc4ccccc4)cc3)ncnc2cn1 [GW281179X] | 0.11 |
| CS(=O)(=O)Nc1ccc(-c2cc(-c3ccccc3)cc(C(N)=O)c2N)cc1 [GSK586581A] | -0.05 |
| CN(c1ccc2c(c1)nc(NCc1ccc(F)cc1)n2C)c1ccnc(Nc2ccc(CS(C)(=O)=O)cc2)n1 [GW813244A] | 0.65 |
| Cc1ccc(Nc2ccnc(Nc3cccc(C(N)=O)c3)n2)cc1O [GW575808A] | -1.41 |

----------
# Test system: HeLa cells
# ASSAY_REMARKS: Compound screen by flow cytometry: HeLa cell count as surrogate readout of cell viability (z-scoreHeLa)
# Assay type: cell-based, human
# TEST_CONDITIONS: PKIS compound screen, replicate 1
MEASURE_NAME: z-scoreHeLa rep 1

| MOLECULE | MEASURE_NAME | VAL |
| --- | --- | --- |
| COc1ccc(CNC(=O)NC2CCN(c3ccnc(Nc4ccc(OC)cc4)n3)C2)cc1 (stereo not drawn) [GSK1379727A] | z-scoreHeLa rep 1 | 0.99 |
| O=C(Nc1n[nH]c2cc(-c3ccccc3)ccc12)C1CC1 | z-scoreHeLa rep 1 | 0.15 |
| COc1cccc(C2=C(Nc3ccc(Cl)c(C(=O)O)c3)C(=O)NC2=O)c1 | z-scoreHeLa rep 1 | 0.80 |
| COc1ccc(Nc2nccc(N3CCC(NC(=O)Nc4cccc(OC)c4)C3)n2)cc1 (stereo not drawn) [GSK1379742A] | z-scoreHeLa rep 1 | 1.56 |
| COc1cc(Nc2ncc3c(C)nc(-c4cc5ccccc5[nH]4)n3n2)cc(OC)c1OC [GW869516X] | z-scoreHeLa rep 1 | 1.29 |
| O=C(Nc1n[nH]c2nc(-c3ccccc3)c(Br)cc12)C1CC1 | z-scoreHeLa rep 1 | -0.0543 |
| Cc1nc(-c2ccccc2)n2nc(NCCCN3CCOCC3)ncc12 [GW874091X] | z-scoreHeLa rep 1 | -1.54 |
| NS(=O)(=O)c1ccc(N/C=C2\C(=O)Nc3ccc4ncsc4c32)cc1 [GW297361X] | z-scoreHeLa rep 1 | -1.65 |
| CCCN(CCS(C)(=O)=O)Cc1ccc(-c2ccc3ncnc(Nc4ccc(OCc5cccc(F)c5)c(Cl)c4)c3c2)o1 [GW621823A] | z-scoreHeLa rep 1 | 0.17 |
| c1ccc(-c2ccc3c(Nc4ccc5[nH]ccc5c4)ccnc3c2)nc1 [GW440138A] | z-scoreHeLa rep 1 | 0.89 |
| CCCNC(=O)Nc1ccc(N(C)c2ccnc(NC3CC3)n2)cc1 [GW818933X] | z-scoreHeLa rep 1 | 0.56 |
| COc1cccc(-n2ncc3c(N/N=C/c4ccncc4)ncnc32)c1 [GW784752X] | z-scoreHeLa rep 1 | -0.77 |
| COc1ccc(Nc2nccc(N3CCC(NC(=O)Nc4cccc(C(C)=O)c4)C3)n2)cc1 (stereo not drawn) [GSK1379731A] | z-scoreHeLa rep 1 | 1.44 |
| c1ccc(Cc2nc3ccc(Nc4ncnc5ccccc45)cc3[nH]2)cc1 [GR269666A] | z-scoreHeLa rep 1 | 0.10 |
| COc1ccc(S(=O)(=O)NC2CCN(c3cc(C)nc(Nc4cccc(C#N)c4)n3)CC2)cc1 [GSK1653539A] | z-scoreHeLa rep 1 | 0.22 |
| N#Cc1ccc(CCNc2nccc(-c3cccc(CN4CCNCC4)c3)n2)cc1 [GSK2137462A] | z-scoreHeLa rep 1 | -0.12 |
| CN(C)S(=O)(=O)c1cc(-c2ccc3nccc(-c4cccc(S(N)(=O)=O)c4)c3c2)cnc1N [GSK1669921A] | z-scoreHeLa rep 1 | -1.09 |
| Cc1ccc(NC(=O)Nc2ccccc2)cc1-c1ccc(C(=O)Nc2ccncc2)cc1 [GSK1398471A] | z-scoreHeLa rep 1 | -2.47 |

----------
# System: HeLa cells
# ASSAY_REMARKS: Compound screen by flow cytometry: HeLa cell count as surrogate readout of cell viability (z-scoreHeLa)
# Assay type: cell-based, human
# TEST_CONDITIONS: PKIS compound screen, replicate 3

| MOLECULE | z-scoreHeLa rep 3 |
| --- | --- |
| CN(C)c1cc2c(Nc3ccc4nc(Cc5ccccc5)[nH]c4c3)ncnc2cn1 [GW301888X] | 0.61 |
| Cc1cccc(-c2nc(Nc3ccc4ncsc4c3)c3ccccc3n2)n1 [GW867588X] | 2.28 |
| Cc1nn2c(=O)cc(N3CCOCC3)nc2n1Cc1cccc(Cl)c1Cl [GSK2342769A] | -1.19 |
| O=C(NC1CCN(c2ccnc(Nc3ccc(F)cc3)n2)C1)c1cc2ccccc2s1 (centres unmarked) [GSK1379716A] | 0.28 |
| Cc1ccc(S(=O)(=O)Nc2ccc(Nc3nccc(Nc4cccc5[nH]ncc45)n3)cc2)cc1 [GSK581271A] | 0.51 |
| NS(=O)(=O)c1ccc(N/N=C2\C(=O)Nc3ccc(Cl)cc32)cc1 [GW280670X] | 0.37 |
| COc1ccc(Nc2nccc(N3CCC(NC(=O)Nc4cccc(C(C)=O)c4)C3)n2)cc1 (centres unmarked) [GSK1379731A] | 0.66 |
| Cc1ccc(NC(=O)Nc2ccccc2)cc1-c1ccc(C(=O)Nc2ccncc2)cc1 [GSK1398471A] | -1.88 |

----------
# System: HeLa cells
# ASSAY_REMARKS: Compound screen by flow cytometry: HeLa cell count as surrogate readout of cell viability (z-scoreHeLa)
# Format: cell-based, human
# TEST_CONDITIONS: PKIS compound screen raw data, HeLa cell count, replicate 3
One threshold, 40000, splits the recorded cell count rep 3 values: lower ones are Condition met, equal or higher ones are Condition not met.

| MOLECULE | QUALITATIVE_LABEL |
| --- | --- |
| COc1ccc(Nc2nccc(NCCNC(=O)Nc3ccccc3F)n2)cc1 [GSK1379901A] | Condition met |
| COc1ccc(COc2ccc(Cc3cnc(N)nc3N)cc2OC)cc1 [GW632580X] | Condition not met |
| O=C(c1ccc(-c2cc(-c3c[nH]nc3-c3ccccn3)ccn2)cc1)N1CCCC1 [GW792479X] | Condition met |
| O=C1Nc2ccc(-c3cccnc3)cc2C1=Cc1cc(Br)c(O)c(Br)c1 [GW429374A] | Condition not met |
| CC(C)S(=O)(=O)N1CCN(Cc2ccc3c(c2)nc(NC(=O)c2ccsc2)n3C[C@H](O)c2ccccc2)CC1 [GW635815X] | Condition met |
| COc1cccc(NC(=O)NCCNc2ccnc(Nc3ccc(F)cc3)n2)c1 [GSK1379879A] | Condition met |
| Fc1ccc(-c2ncn(C3CCNCC3)c2-c2ccnc(Oc3ccc(F)c(F)c3)n2)cc1 | Condition met |
| CCS(=O)(=O)c1ccc(OC)c(Nc2nccc(N(C)c3ccc4c(C)n[nH]c4c3)n2)c1 [GW654652C] | Condition met |

----------
Items are presented alongside their recorded cell count rep 2.
# Test system: HeLa cells
# ASSAY_REMARKS: Compound screen by flow cytometry: HeLa cell count as surrogate readout of cell viability (z-scoreHeLa)
# Type: cell-based, human
# TEST_CONDITIONS: PKIS compounds raw data; replicate 2; HeLa cell count

| COMPOUND | EXPERIMENTAL_TARGET | cell count rep 2 |
| --- | --- | --- |
| Fc1cccc(COc2ccc(Nc3ncnc4cc(-c5ccc[nH]5)sc34)cc2Cl)c1 [GW693881A] | HeLa cells | 4577 |
| O=C(Nc1n[nH]c2cc(-c3ccsc3)ccc12)C1CC1 | HeLa cells | 6296 |
| c1ccc(Oc2ccc(Nc3ccnc4cc(-c5ccc(CNCCN6CCOCC6)o5)ccc34)cc2)nc1 [GW567145X] | HeLa cells | 7342 |
| Cn1cc(-c2ccc3c(c2)CCN3C(=O)Cc2ccccc2Cl)c2c(N)ncnc21 [GSK2608885A] | HeLa cells | 6021 |
| O=C(Nc1ccccc1F)NC1CCN(c2ccnc(Nc3ccc(F)cc3)n2)C1 (stereo not drawn) [GSK1379722A] | HeLa cells | 6922 |
| Cn1cc(C=C2C(=O)Nc3cccnc32)c2ccccc21 [GW441756X] | HeLa cells | 4695 |
| Nc1ncc(-c2cccc(S(N)(=O)=O)c2)c2scc(-c3ccc(F)c(Cl)c3)c12 [GW856804X] | HeLa cells | 7246 |
| COc1cc(C=NNc2ncnc3c2cnn3-c2ccccc2)ccc1O [GW513184X] | HeLa cells | 5698 |
| O=C(c1ccc(-c2cc(-c3c[nH]nc3-c3ccccn3)ccn2)cc1)N1CCOCC1 [GW812171X] | HeLa cells | 7175 |
| CC(C)c1nc(-c2ccc(F)c(NS(=O)(=O)c3c(F)cccc3F)c2)c(-c2ccnc(Nc3ccc(N4CCOCC4)nc3)n2)s1 [GSK1804250A] | HeLa cells | 4582 |
| Cc1cccc(-c2nc(Nc3cccc(C(N)=O)c3)c3ccccc3n2)n1 [GW876019X] | HeLa cells | 2183 |
| COc1ccc(Nc2nccc(N3CCC(NC(=O)Nc4cccc(OC)c4)C3)n2)cc1 (stereo not drawn) [GSK1379742A] | HeLa cells | 7027 |
| Nc1ncnc2occ(-c3ccc(NC(=O)Nc4cc(C(F)(F)F)ccc4F)cc3)c12 [GW770249X] | HeLa cells | 2249 |
| NS(=O)(=O)c1ccc(N/C=C2\C(=O)Nc3ccc4ncsc4c32)cc1 [GW297361X] | HeLa cells | 3493 |
| CS(=O)(=O)CCNCc1nc(-c2ccc3ncnc(Nc4ccc(OCc5cccc(F)c5)c(Cl)c4)c3c2)cs1 [GW583340C] | HeLa cells | 5507 |
| Cc1n[nH]c2cc(Nc3ccnc(Nc4cccc(CN5CCOCC5)c4)n3)ccc12 [GW682569X] | HeLa cells | 1754 |
| COc1cc(Nc2ncc3c(C)nc(-c4cc5ccccc5[nH]4)n3n2)cc(OC)c1OC [GW869516X] | HeLa cells | 8134 |
| COc1cccc(-n2nc(C)c3c(N/N=C(\C)c4ccncc4)ncnc32)c1 [GW809885X] | HeLa cells | 6939 |
